All figures here come from patent US20210284747A1.

Quick reference for % of WT binding among some binders
- tgt: Full length LIGHT A190S on HEK293FF cells (Homo sapiens (Human), UniProt O43557 1-240)
- Sequence (O43557 whole entry A190S): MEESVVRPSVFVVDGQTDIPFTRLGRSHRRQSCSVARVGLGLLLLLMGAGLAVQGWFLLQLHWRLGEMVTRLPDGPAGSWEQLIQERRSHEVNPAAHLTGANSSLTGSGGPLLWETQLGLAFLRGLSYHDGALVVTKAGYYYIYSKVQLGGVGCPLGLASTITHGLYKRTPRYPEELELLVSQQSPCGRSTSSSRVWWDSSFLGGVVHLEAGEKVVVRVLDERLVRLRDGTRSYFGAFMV
- experiment: flow cytometry, HEK293FF, mAb at EC50

[
  {
    "binder": "3A07 chimeric IgG4 mAb (antibody, V domains shown, Chimeric human IgG4 (S-to-P, L-to-E) with human CL, as m1; also called Parental 3A07) VH: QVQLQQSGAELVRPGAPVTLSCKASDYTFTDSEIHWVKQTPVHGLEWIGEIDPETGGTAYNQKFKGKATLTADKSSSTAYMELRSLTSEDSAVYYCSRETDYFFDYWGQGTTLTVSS VL: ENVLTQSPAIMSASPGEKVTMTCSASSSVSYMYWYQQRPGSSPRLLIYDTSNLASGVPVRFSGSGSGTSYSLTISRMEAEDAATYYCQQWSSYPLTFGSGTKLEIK",
    "% of WT binding [%]": 47
  },
  {
    "binder": "3D12 chimeric IgG4 mAb (antibody, V domains shown, Chimeric human IgG4 (S-to-P, L-to-E) with human CL, as m1; also called Parental 3D12; 03D12) VH: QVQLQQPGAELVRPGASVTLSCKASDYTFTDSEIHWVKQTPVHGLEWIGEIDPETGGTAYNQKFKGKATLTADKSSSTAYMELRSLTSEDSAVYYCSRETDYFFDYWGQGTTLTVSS VL: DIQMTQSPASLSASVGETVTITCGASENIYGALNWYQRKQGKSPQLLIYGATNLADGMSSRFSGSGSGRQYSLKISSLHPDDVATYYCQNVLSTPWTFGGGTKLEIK",
    "% of WT binding [%]": 82
  },
  {
    "binder": "2E08 chimeric IgG4 mAb (antibody, V domains shown, Chimeric human IgG4 (S-to-P, L-to-E) with human CL, as m1; also called Parental 2E08) VH: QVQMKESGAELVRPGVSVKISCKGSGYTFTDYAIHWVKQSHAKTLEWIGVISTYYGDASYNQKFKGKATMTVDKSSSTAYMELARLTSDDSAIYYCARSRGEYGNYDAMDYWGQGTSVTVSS VL: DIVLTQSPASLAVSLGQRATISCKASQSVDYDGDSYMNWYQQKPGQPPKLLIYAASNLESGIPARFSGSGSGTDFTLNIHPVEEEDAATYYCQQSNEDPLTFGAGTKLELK",
    "% of WT binding [%]": 93
  }
]
